- Test system: HOP-62
- ASSAY DETAILS: relative viability (nuclei count vs DMSO), 5 days (fraction); higher = more cells survive
- PROTOCOL CONDITIONS: first compound 0.05 µM
Exercise: state measured relative viability for each of the compounds provided.
One number for each entry.

COMPOUND	relative viability
Nc1ccn([C@@H]2O[C@H](CO)[C@@H](O)[C@@H]2O)c(=O)n1 [Cytarabine] + Cc1cc(Nc2cc(N3CCN(C)CC3)nc(Sc3ccc(NC(=O)C4CC4)cc3)n2)n[nH]1 [Tozasertib] (partner 0.1 µM)	0.282

Continue with the compound presented below.
Supply relative viability value. Item: Nc1ccn([C@@H]2O[C@H](CO)[C@@H](O)[C@@H]2O)c(=O)n1 [Cytarabine] + CC(=O)c1c(C)c2cnc(Nc3ccc(N4CCNCC4)cn3)nc2n(C2CCCC2)c1=O [Palbociclib] (partner 0.5 µM) 0.234

====

- Tested on: SW 900
- ASSAY DETAILS: relative viability (nuclei count vs DMSO), 5 days (fraction); higher = more cells survive
- PROTOCOL CONDITIONS: first compound 0.005 µM
Just a reminder that ties go to NO: only relative viability strictly below 0.4 counts as YES.

Consider the worked cases shown below.
COMPOUND	CAT
COc1cc2nccc(Oc3ccc(NC(=O)Nc4cc(C)on4)c(Cl)c3)c2cc1OC [Tivozanib] + CC(=O)c1c(C)c2cnc(Nc3ccc(N4CCNCC4)cn3)nc2n(C2CCCC2)c1=O [Palbociclib] (partner 0.5 µM)	NO
COc1cc2nccc(Oc3ccc(NC(=O)Nc4cc(C)on4)c(Cl)c3)c2cc1OC [Tivozanib] + O=C(CCCCCCC(=O)Nc1ccccc1)NO [Vorinostat] (partner 1 µM)	NO
COc1cc2nccc(Oc3ccc(NC(=O)Nc4cc(C)on4)c(Cl)c3)c2cc1OC [Tivozanib] + Nc1nc2[nH]cc(CCc3ccc(C(=O)N[C@@H](CCC(=O)O)C(=O)O)cc3)c2c(=O)[nH]1 [Pemetrexed] (partner 0.2 µM)	NO

Now examine the next entry.
Answer whether the compound COc1cc2nccc(Oc3ccc(NC(=O)Nc4cc(C)on4)c(Cl)c3)c2cc1OC [Tivozanib] + CCNC(=O)c1noc(-c2cc(C(C)C)c(O)cc2O)c1-c1ccc(CN2CCOCC2)cc1 [Luminespib] (partner 0.01 µM) has relative viability strictly less than 0.4 YES

====

Exercise: state measured relative viability for each of the compounds provided.
- System: LK-2
- ASSAY DETAILS: relative viability (nuclei count vs DMSO), 5 days (fraction); higher = more cells survive
- PROTOCOL CONDITIONS: first compound 0.4 µM
One number for each entry.

# count of solved cases: 3
COMPOUND	VALUE REPORTED
Cc1sc2c(c1C)C(c1ccc(Cl)cc1)=N[C@@H](CC(=O)OC(C)(C)C)c1nnc(C)n1-2 [JQ1] + CS(=O)(=O)N1CCN(Cc2cc3nc(-c4cccc5[nH]ncc45)nc(N4CCOCC4)c3s2)CC1 [Pictilisib] (partner 1 µM)	0.35
Cc1sc2c(c1C)C(c1ccc(Cl)cc1)=N[C@@H](CC(=O)OC(C)(C)C)c1nnc(C)n1-2 [JQ1] + Cc1nc(Nc2ncc(C(=O)Nc3c(C)cccc3Cl)s2)cc(N2CCN(CCO)CC2)n1 [Dasatinib] (partner 0.075 µM)	0.162
Cc1sc2c(c1C)C(c1ccc(Cl)cc1)=N[C@@H](CC(=O)OC(C)(C)C)c1nnc(C)n1-2 [JQ1] + C[C@]1(O)C[C@@H](c2nc(-c3ccc4ccc(-c5ccccc5)nc4c3)c3c(N)nccn32)C1 [Linsitinib] (partner 1 µM)	0.233

Continue with the compound presented below.
Supply relative viability value. Item: Cc1sc2c(c1C)C(c1ccc(Cl)cc1)=N[C@@H](CC(=O)OC(C)(C)C)c1nnc(C)n1-2 [JQ1] + CS(=O)(=O)CCNCc1ccc(-c2ccc3ncnc(Nc4ccc(OCc5cccc(F)c5)c(Cl)c4)c3c2)o1 [Lapatinib] (partner 2 µM) 0.456

This collection of values is drawn from the supplement of paper PMC10307832.
